Taken from ChEMBL document CHEMBL4028872.

# Study Target: Sodium- and chloride-dependent betaine transporter (Homo sapiens, UniProt P48065, K310N)
# Test Name: Inhibition of human BGT1 K310N mutant expressed in tsA201 cells assessed as reduction in [3H]GABA uptake after 3 mins by scintillation counting method
# Type: cell-based
Experimental Readout: IC50 (µM)

{"Smiles Input": "O=C(NC1CCN(Cc2ccccc2)CC1)c1ccc(Cl)cc1Cl", "Experimental Readout": "IC50", "Unit Name": "µM", "Value Measured": 10}

====

# Study Target: UniProt:Q9NSD5
# Sequence (Q9NSD5 whole entry): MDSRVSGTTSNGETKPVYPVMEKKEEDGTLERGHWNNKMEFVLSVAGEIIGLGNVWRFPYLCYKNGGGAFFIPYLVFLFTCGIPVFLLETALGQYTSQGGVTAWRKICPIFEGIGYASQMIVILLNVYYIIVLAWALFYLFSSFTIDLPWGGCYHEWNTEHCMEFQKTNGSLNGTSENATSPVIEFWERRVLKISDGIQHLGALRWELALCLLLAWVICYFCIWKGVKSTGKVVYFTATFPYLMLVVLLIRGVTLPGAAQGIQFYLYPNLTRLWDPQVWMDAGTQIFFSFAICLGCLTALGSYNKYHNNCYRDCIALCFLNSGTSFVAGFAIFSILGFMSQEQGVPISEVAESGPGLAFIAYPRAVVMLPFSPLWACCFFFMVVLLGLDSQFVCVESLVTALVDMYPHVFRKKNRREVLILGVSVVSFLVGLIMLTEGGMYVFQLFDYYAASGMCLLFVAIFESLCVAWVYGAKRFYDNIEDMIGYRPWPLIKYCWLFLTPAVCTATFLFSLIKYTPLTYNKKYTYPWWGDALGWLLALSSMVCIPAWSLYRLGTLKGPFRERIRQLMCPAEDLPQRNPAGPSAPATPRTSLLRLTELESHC
# Test Name: Inhibition of human GAT2 expresses in tsA201 cells assessed as reduction in [3H]GABA uptake after 3 mins by scintillation counting method
# Assay type: cell-based
Listed here: items and their measured IC50.

{"Smiles Input": "O=C(NC1CCN(Cc2ccccc2)CC1)c1ccc2c(c1)OCO2", "Study Target": "UniProt:Q9NSD5", "Unit Name": "µM", "Comparison Operator": "=", "IC50": 63}
{"Smiles Input": "O=C(NC1CCN(Cc2ccccc2)CC1)c1ccc2ccccc2c1", "Study Target": "UniProt:Q9NSD5", "Unit Name": "µM", "Comparison Operator": "=", "IC50": 23}
{"Smiles Input": "O=C(NC1CCN(Cc2ccccc2)CC1)c1ccc(Cl)cc1Cl", "Study Target": "UniProt:Q9NSD5", "Unit Name": "µM", "Comparison Operator": ">", "IC50": 100}

====

# Study Target: Sodium- and chloride-dependent GABA transporter 3 (Homo sapiens, UniProt P48066)
# Sequence (P48066 whole entry): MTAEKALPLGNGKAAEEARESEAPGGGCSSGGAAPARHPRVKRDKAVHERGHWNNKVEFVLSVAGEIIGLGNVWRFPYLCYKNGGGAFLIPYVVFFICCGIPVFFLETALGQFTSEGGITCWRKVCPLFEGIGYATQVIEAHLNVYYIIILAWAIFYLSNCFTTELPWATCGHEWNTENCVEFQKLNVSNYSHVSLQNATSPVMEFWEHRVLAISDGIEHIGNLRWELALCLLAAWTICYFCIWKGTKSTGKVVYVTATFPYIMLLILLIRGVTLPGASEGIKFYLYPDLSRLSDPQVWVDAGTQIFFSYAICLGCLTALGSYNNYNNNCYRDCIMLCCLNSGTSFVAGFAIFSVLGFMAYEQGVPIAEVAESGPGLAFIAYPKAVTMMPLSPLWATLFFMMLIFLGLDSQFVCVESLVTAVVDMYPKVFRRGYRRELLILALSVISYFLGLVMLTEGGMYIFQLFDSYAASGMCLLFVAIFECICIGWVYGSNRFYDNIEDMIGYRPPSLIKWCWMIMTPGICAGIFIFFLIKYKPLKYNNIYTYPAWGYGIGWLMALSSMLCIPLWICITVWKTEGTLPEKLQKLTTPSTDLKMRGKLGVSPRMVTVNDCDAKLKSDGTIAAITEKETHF
# Test Name: Inhibition of human GAT3 expresses in tsA201 cells assessed as reduction in [3H]GABA uptake after 3 mins by scintillation counting method
# Format: cell-based
# Settings: read-out: IC50

{"Smiles Input": "O=C(NC1CCN(Cc2ccc([N+](=O)[O-])cc2)CC1)c1ccc(Cl)cc1Cl", "Study Target": "Sodium- and chloride-dependent GABA transporter 3 (Homo sapiens, UniProt P48066)", "IC50": "> 100 µM"}
{"Smiles Input": "O=C(CN1CCC(NC(=O)c2ccc(Cl)cc2Cl)CC1)c1ccccc1", "Study Target": "Sodium- and chloride-dependent GABA transporter 3 (Homo sapiens, UniProt P48066)", "IC50": "> 100 µM"}
{"Smiles Input": "CCN1CCC(NC(=O)c2ccc(Cl)cc2Cl)CC1", "Study Target": "Sodium- and chloride-dependent GABA transporter 3 (Homo sapiens, UniProt P48066)", "IC50": "> 1000 µM"}
{"Smiles Input": "O=C(NC1CCN(C/C=C/c2ccccc2)CC1)c1ccc(Cl)cc1Cl", "Study Target": "Sodium- and chloride-dependent GABA transporter 3 (Homo sapiens, UniProt P48066)", "IC50": "> 100 µM"}
{"Smiles Input": "C#CCN1CCC(NC(=O)c2ccc(Cl)cc2Cl)CC1", "Study Target": "Sodium- and chloride-dependent GABA transporter 3 (Homo sapiens, UniProt P48066)", "IC50": "> 1000 µM"}
{"Smiles Input": "O=C(NC1CCN(Cc2ccccc2)CC1)c1ccc(Cl)nc1Cl", "Study Target": "Sodium- and chloride-dependent GABA transporter 3 (Homo sapiens, UniProt P48066)", "IC50": "> 1000 µM"}

====

# Study Target: Sodium- and chloride-dependent GABA transporter 3 (Homo sapiens, UniProt P48066, L314Q)
# Sequence (P48066 whole entry L314Q): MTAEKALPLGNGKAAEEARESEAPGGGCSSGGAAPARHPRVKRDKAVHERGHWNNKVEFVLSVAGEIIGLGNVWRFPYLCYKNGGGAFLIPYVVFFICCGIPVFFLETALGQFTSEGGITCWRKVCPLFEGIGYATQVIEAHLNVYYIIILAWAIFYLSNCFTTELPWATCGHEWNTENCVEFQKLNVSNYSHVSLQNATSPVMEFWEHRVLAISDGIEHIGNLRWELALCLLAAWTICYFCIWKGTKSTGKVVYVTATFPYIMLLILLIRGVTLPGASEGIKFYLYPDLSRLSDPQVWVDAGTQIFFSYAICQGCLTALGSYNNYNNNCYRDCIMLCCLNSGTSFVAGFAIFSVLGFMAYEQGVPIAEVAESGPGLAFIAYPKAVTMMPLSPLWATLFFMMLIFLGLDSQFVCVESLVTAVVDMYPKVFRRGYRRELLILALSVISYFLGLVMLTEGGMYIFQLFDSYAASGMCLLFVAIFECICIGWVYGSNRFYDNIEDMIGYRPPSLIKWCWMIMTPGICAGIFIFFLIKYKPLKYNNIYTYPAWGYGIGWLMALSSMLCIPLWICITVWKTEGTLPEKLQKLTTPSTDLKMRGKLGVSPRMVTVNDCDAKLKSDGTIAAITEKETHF
# Test Name: Inhibition of human GAT3 L314Q mutant expresses in tsA201 cells assessed as reduction in [3H]GABA uptake after 3 mins by scintillation counting method
pIC50: −log10 of the molar value.

{"Molecule": "NCCCC(=O)O [GAMMA-AMINOBUTYRIC ACID]", "pIC50": 5.40}
{"Molecule": "O=C(NC1CCN(Cc2ccccc2)CC1)c1ccc(Cl)nc1Cl", "pIC50": 3.39}
{"Molecule": "O=C(NC1CCN(Cc2ccccc2)CC1)c1ccc(Cl)cc1Cl", "pIC50": 3.34}

====

# Study Target: Sodium- and chloride-dependent betaine transporter (Homo sapiens, UniProt P48065, I340V)
# Sequence (P48065 whole entry I340V): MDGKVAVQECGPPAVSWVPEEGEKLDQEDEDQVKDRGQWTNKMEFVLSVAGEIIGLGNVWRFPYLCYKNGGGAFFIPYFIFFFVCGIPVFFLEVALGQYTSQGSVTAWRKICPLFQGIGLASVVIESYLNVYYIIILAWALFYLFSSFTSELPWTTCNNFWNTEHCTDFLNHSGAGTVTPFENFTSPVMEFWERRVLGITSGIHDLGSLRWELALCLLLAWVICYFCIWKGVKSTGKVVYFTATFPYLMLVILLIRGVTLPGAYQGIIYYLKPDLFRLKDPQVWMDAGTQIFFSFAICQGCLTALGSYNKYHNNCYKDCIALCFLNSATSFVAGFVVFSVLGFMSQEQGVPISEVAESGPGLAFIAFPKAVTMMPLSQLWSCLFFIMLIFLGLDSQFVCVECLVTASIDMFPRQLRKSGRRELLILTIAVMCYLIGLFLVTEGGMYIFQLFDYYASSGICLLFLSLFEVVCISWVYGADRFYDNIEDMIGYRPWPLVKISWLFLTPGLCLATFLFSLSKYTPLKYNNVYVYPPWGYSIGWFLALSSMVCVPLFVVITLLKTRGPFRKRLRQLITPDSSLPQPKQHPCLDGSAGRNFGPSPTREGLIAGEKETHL
# Test Name: Inhibition of human BGT1 I340V mutant expressed in tsA201 cells assessed as reduction in [3H]GABA uptake after 3 mins by scintillation counting method
# Type: cell-based
# Settings: read-out: IC50
pIC50: −log10 of the molar value.

{"Smiles Input": "O=C(NC1CCN(Cc2ccccc2)CC1)c1ccc(Cl)cc1Cl", "pIC50": 5.10}

====

# Test Name: Solubility of compound in pH 7.4 phosphate buffer after 24 hrs by HPLC-UV method
# Type: physicochemical
Catalogue of molecules with associated solubility at 24 h

{"Smiles Input": "O=C(NC1CCN(Cc2ccccc2)CC1)c1ccc(Cl)nc1Cl", "solubility at 24 h": "610 µg/mL"}
{"Smiles Input": "O=C(NC1CCN(Cc2ccccc2)CC1)c1ccc(Cl)cc1Cl", "solubility at 24 h": "40 µg/mL"}
{"Smiles Input": "COc1cccc(CN2CCC(NC(=O)c3ccc(Cl)nc3Cl)CC2)c1", "solubility at 24 h": "240 µg/mL"}
{"Smiles Input": "CCOc1cccc(CN2CCC(NC(=O)c3ccc(Cl)nc3Cl)CC2)c1", "solubility at 24 h": "130 µg/mL"}
{"Smiles Input": "O=C(NC1CCN(Cc2cccc(C(F)(F)F)c2)CC1)c1ccc(Cl)cc1Cl", "solubility at 24 h": "3 µg/mL"}
{"Smiles Input": "O=C(NC1CCN(Cc2ccccc2)CC1)c1c(Cl)cc(Cl)cc1Cl", "solubility at 24 h": "40 µg/mL"}

====

# Study Target: GABA transporter 2 (Mus musculus)
# Sequence (P31651 whole entry): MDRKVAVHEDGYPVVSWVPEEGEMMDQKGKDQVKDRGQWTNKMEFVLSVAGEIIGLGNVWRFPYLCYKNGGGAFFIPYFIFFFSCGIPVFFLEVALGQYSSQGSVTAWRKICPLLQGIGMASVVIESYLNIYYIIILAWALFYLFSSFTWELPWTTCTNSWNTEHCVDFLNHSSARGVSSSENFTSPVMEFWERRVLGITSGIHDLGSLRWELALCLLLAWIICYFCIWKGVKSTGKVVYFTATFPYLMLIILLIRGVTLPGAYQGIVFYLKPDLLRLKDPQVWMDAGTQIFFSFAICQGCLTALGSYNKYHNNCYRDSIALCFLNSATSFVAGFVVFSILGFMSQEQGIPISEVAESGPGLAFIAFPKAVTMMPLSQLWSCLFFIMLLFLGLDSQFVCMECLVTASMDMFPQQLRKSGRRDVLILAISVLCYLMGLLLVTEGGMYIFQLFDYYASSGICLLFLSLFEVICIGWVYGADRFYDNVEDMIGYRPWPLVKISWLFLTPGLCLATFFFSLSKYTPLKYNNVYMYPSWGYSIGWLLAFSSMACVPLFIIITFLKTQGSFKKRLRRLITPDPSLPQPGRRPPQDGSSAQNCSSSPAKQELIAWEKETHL
# Test Name: Inhibition of mouse BGT1 expressed in hamster BHK cells assessed as reduction in [3H]GABA uptake after 3 mins by scintillation counting method
# Settings: read-out: Ki(app)
pKi: −log10 of the molar value.

{"Smiles Input": "COc1ccccc1C1(O)CCN(CCCn2c3ccccc3c3ccccc32)CC1", "pKi": 5.85}

====

# Study Target: Sodium- and chloride-dependent betaine transporter (Homo sapiens, UniProt P48065, V337I)
# Sequence (P48065 whole entry V337I): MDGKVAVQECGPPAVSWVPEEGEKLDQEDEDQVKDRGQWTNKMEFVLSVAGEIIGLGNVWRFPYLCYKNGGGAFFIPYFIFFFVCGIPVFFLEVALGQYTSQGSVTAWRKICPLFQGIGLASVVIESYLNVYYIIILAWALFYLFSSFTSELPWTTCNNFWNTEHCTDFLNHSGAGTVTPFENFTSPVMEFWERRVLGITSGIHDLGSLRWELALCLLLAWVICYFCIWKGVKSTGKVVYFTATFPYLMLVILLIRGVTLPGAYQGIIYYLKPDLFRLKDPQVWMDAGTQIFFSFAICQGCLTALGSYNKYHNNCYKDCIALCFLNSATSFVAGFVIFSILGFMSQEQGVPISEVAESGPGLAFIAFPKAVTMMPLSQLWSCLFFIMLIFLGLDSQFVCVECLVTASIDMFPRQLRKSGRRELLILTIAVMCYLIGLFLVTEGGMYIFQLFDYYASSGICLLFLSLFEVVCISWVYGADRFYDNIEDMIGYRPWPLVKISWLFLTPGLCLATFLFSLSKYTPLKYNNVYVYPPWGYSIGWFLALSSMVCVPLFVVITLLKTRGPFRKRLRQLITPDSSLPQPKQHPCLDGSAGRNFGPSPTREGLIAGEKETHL
# Test Name: Inhibition of human BGT1 V337I mutant expressed in tsA201 cells assessed as reduction in [3H]GABA uptake after 3 mins by scintillation counting method
# Type: cell-based
# Settings: read-out: IC50

{"Smiles Input": "O=C(NC1CCN(Cc2ccccc2)CC1)c1ccc(Cl)cc1Cl", "IC50 (µM)": 6}

====

# Study Target: Sodium- and chloride-dependent betaine transporter (Homo sapiens, UniProt P48065)
# Sequence (P48065 whole entry, looked up): as the sequence (P48065 whole entry V337I) above, with I337V counted along it
# Test Name: Inhibition of human BGT1/human GAT3 chimera D expresses in tsA201 cells assessed as reduction in [3H]GABA uptake after 3 mins by scintillation counting method
# Format: cell-based

{"Smiles Input": "O=C(NC1CCN(Cc2ccccc2)CC1)c1ccc(Cl)cc1Cl", "IC50 / nM": 2000}

====

# maps each entry to its IC50
# Study Target: GABA transporter 2 (Mus musculus)
# Test Name: Inhibition of mouse BGT1 expressed in HEK293 cells assessed as reduction in [3H]GABA uptake after 3 mins by scintillation counting method
# Format: cell-based
# Settings: read-out: IC50

{"Smiles Input": "COc1cccc(CN2CCC(NC(=O)c3ccc(Cl)cc3Cl)CC2)c1", "Comparison Operator": "=", "IC50 [µM]": 26}
{"Smiles Input": "O=C(NC1CCN(Cc2ccc(OC(F)(F)F)cc2)CC1)c1ccc(Cl)cc1Cl", "Comparison Operator": ">", "IC50 [µM]": 1000}
{"Smiles Input": "O=C(O)c1cccc(CN2CCC(NC(=O)c3ccc(Cl)nc3Cl)CC2)c1", "Comparison Operator": ">", "IC50 [µM]": 300}
{"Smiles Input": "COc1cccc(CN2CCC(NC(=O)c3ccc(Cl)nc3Cl)CC2)c1", "Comparison Operator": "=", "IC50 [µM]": 115}
{"Smiles Input": "O=C(NC1CCN(Cc2ccccc2)CC1)c1c(Cl)cc(Cl)cc1Cl", "Comparison Operator": "=", "IC50 [µM]": 11}
{"Smiles Input": "O=C(NC1CCN(Cc2ccccc2)CC1)c1ccccc1Cl", "Comparison Operator": "=", "IC50 [µM]": 151}
{"Smiles Input": "O=C(NC1CCN(Cc2cccc([N+](=O)[O-])c2)CC1)c1ccc(Cl)nc1Cl", "Comparison Operator": ">", "IC50 [µM]": 300}
{"Smiles Input": "O=C(NC1CCN(Cc2ccccc2)CC1)c1ccnc(Cl)c1", "Comparison Operator": "=", "IC50 [µM]": 300}
{"Smiles Input": "CCOc1cccc(CN2CCC(NC(=O)c3ccc(Cl)nc3Cl)CC2)c1", "Comparison Operator": "=", "IC50 [µM]": 111}
{"Smiles Input": "COc1cccc(CN2CCC(NC(=O)c3ccncc3)CC2)c1", "Comparison Operator": ">", "IC50 [µM]": 1000}
{"Smiles Input": "COc1cc(CN2CCC(NC(=O)c3ccc(Cl)cc3Cl)CC2)cc(OC)c1", "Comparison Operator": "=", "IC50 [µM]": 30}
{"Smiles Input": "COc1cccc(CN2CCC(NC(=O)c3cccs3)CC2)c1", "Comparison Operator": "=", "IC50 [µM]": 390}
{"Smiles Input": "O=C(NC1CCN(Cc2cccc(OC(F)(F)F)c2)CC1)c1ccc(Cl)cc1Cl", "Comparison Operator": "=", "IC50 [µM]": 160}
{"Smiles Input": "O=C(NC1CCN(Cc2ccccc2)CC1)c1cccnc1", "Comparison Operator": ">", "IC50 [µM]": 1000}
{"Smiles Input": "Cc1cccc(CN2CCC(NC(=O)c3ccc(Cl)cc3Cl)CC2)c1", "Comparison Operator": ">", "IC50 [µM]": 300}
{"Smiles Input": "O=C(NC1CCN(Cc2ccccc2)CC1)c1ccncc1", "Comparison Operator": "=", "IC50 [µM]": 1150}
{"Smiles Input": "NC(=O)c1cccc(CN2CCC(NC(=O)c3ccc(Cl)nc3Cl)CC2)c1", "Comparison Operator": ">", "IC50 [µM]": 300}
{"Smiles Input": "O=C(NC1CCN(Cc2ccccc2)CC1)c1cccs1", "Comparison Operator": "=", "IC50 [µM]": 179}
{"Smiles Input": "O=C(NC1CCN(Cc2cc(Cl)cc(Cl)c2)CC1)c1ccc(Cl)cc1Cl", "Comparison Operator": ">", "IC50 [µM]": 300}
{"Smiles Input": "O=C(NC1CCN(Cc2cccc(C(F)(F)F)c2)CC1)c1ccc(Cl)cc1Cl", "Comparison Operator": "=", "IC50 [µM]": 51}
{"Smiles Input": "O=C(OC1CCN(Cc2ccccc2)CC1)c1ccc(Cl)cc1Cl", "Comparison Operator": ">", "IC50 [µM]": 1000}
{"Smiles Input": "O=C(NC1CCN(Cc2cccc(OCCO)c2)CC1)c1ccc(Cl)nc1Cl", "Comparison Operator": ">", "IC50 [µM]": 300}
{"Smiles Input": "O=C(NC1CCN(Cc2c[nH]c3ccccc23)CC1)c1ccc(Cl)nc1Cl", "Comparison Operator": "=", "IC50 [µM]": 58}
{"Smiles Input": "Cc1cc(C)cc(CN2CCC(NC(=O)c3ccc(Cl)cc3Cl)CC2)c1", "Comparison Operator": ">", "IC50 [µM]": 300}
